assay: gradient 5% acetonitrile 3 min, to 50% in 2 min, to 85% in 15 min, held 3 min, 100 µL/min; conditions: column: Zorbax Extend-C18 2.1 x 50 mm; eluents: water / acetonitrile, 0.1% formic acid
Could you label it True if measured RP-LC retention time is 900 s or higher, and False otherwise?

Solved entries:
molecule	assigned_category
Cc1ccc(C)c(C(=O)CCC(=O)O)c1	False
Cc1ccc(NC(=O)C2CCCN(c3nnc4cccc(C)n34)C2)cc1F (stereo not drawn)	False
O=c1c(=O)n(-c2ccccc2)ccn1Cc1cccc(C(F)(F)F)c1	False
CCn1ccc2c(cc(C(=O)Nc3cc(C)c(Cl)cc3OC)n2C)c1=O	True
O=c1ccc(-c2ccccc2)nn1CCc1nc(-c2cccc(Cl)c2)no1	True

Assess whether reported RP-LC retention time for `CCOC(=O)c1noc2nc(C)nc(NCC3CCN(Cc4cccc(C)c4)CC3)c12` sits at 900 s or higher.
False

Would you mind doing `Cc1cc(S(=O)(=O)N2CCC(C(N)=O)CC2)ccc1F` as well?
False

Moving on to the next molecule: CC(C)N1C(=O)C(C)(C(=O)Nc2ccccc2F)Oc2cccnc21 (stereo not drawn)
True

Record: `Cc1ccc2oc(C(=O)N3CCC(CCN4CCCC4)CC3)cc(=O)c2c1`
False
